Tested on: RPMI-8226
Test: NCI tumour cell line growth inhibition, 48 h
The source made the active and inactive calls. No stated cut-off is given here; in the data, active = GI50 up to about 1.1 µM and inactive = higher.
Overview of reported GI50 across a group of compounds:
Parameter: GI50

{"Compound": "N=C(N)NS(=O)(=O)c1ccc(NC(=O)c2ccc3nc4ccccc4c(N)c3c2)cc1", "Result": "> 100 µM (inactive)"}
{"Compound": "CCOC(=O)c1sc2nc(SC)nc(Nc3ccc4c(c3)OCCCO4)c2c1N", "Result": "4.25 µM (inactive)"}
{"Compound": "COC(=O)C1=C(C)NC(=O)N2[C@@H](CCOCc3ccccc3)CC[C@@H]12", "Result": "> 50 µM (inactive)"}
{"Compound": "CC(C)C(Nc1c2ccccc2[n+]([O-])c2ccccc12)C(=O)O (stereo not drawn)", "Result": "19.7 µM (inactive)"}
{"Compound": "COC(=O)c1c/c(=N\\NC(=O)CC(=O)Nc2ccc(C)cc2)c2ccccc2o1", "Result": "> 100 µM (inactive)"}
{"Compound": "N#CC(/C(=N/NC(=N)N)C(=O)Nc1ccccc1[N+](=O)[O-])c1nc(-c2ccc([N+](=O)[O-])cc2)cs1 (stereo not drawn)", "Result": "> 100 µM (inactive)"}
{"Compound": "Oc1nc2c(c(-c3ccc(F)cc3)n1)COC/C2=C\\c1ccc(F)cc1", "Result": "> 100 µM (inactive)"}
{"Compound": "O=C1Nc2cc(Cl)ccc2N=CC1NC(=O)C(c1ccccc1)c1ccccc1Cl (stereo not drawn)", "Result": "> 100 µM (inactive)"}
